- System: MDA-MB-231 breast
- testDetails: NCI-60 one-dose screen, 48 h (100 = growth as untreated, 0 = no growth, -100 = all killed)
- assayContext: 10 µM unless noted
Compounds without any hit were thinned out: in the full panel of roughly 83,000, 20% have a hit.
Yes if growth is below 80%. No if not; exact matches included in No.

Below are worked cases with known answers.
# compound, className
data = [
    ("O=C(NO)c1ccc(CNc2cccc3nc(C4CC4)n(-c4ccccc4)c(=O)c23)cc1", "Yes"),
    ("O=C(CC(=O)c1ccccc1F)Nc1ccc([N+](=O)[O-])cc1", "No"),
    ("COc1ccccc1CNCCCN1C(=O)c2ccc3c4c(ccc(c24)C1=O)C(=O)N(CCCOCCCCOCCCN)C3=O", "Yes"),
]

Does COc1ccc2c(c1)N(Cc1ccc(Cl)cc1)CCC2N1CCCC1=O (stereo not given) have growth strictly under 80%?
Yes

Does NC(=O)c1ccc[n+](Cc2ccccc2)c1 have growth strictly under 80%?
No

Does COc1ccc(C(=O)O)cc1.[Ag] have growth strictly under 80%?
No

Does CNC(=O)c1c(NC(=O)c2ccc(C(C)C)cc2)sc2c1CCC(=O)C2 have growth strictly under 80%?
Yes

Does O=C(O)C(CCc1ccccc1)NCc1ccccc1 (stereo not given) have growth strictly under 80%?
No

Does COc1ccccc1CNCCCN1C(=O)c2ccc3c4c(ccc(c24)C1=O)C(=O)N(CCCNCCCN)C3=O have growth strictly under 80%?
Yes
